Please go through the items and note down their self-cleavage.
B1: HDV Ribozyme (parent)
chain: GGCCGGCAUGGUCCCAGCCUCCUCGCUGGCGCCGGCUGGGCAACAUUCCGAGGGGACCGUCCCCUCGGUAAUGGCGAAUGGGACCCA

Variants of: B1
Test: self-cleavage, relative activity (ratio to wild type); higher = more cleavage; co-transcriptional

Record U20C C26A , field self-cleavage: 0.104

Record C15A C64U , field self-cleavage: 0.623

Record C66A G80U , field self-cleavage: 0.304

Record C30U G53C , field self-cleavage: 0.554

Record C32G G50A , field self-cleavage: 0.157

Record C15G G80A , field self-cleavage: 0.635

Record G11U G29C , field self-cleavage: 0.0231

Record U12C A43G , field self-cleavage: 0.0437

Record G39A A56G , field self-cleavage: 0.509

Record G80C G81C , field self-cleavage: 0.186

Record U12G G38A , field self-cleavage: 0.0978

Record C7U C21A , field self-cleavage: 0.0314

Record C19A C66A , field self-cleavage: 0.211

Record G39A G80A , field self-cleavage: 0.229

Record U47G G74C , field self-cleavage: 0.222

Record U20G G34U , field self-cleavage: 0.0519

Record G1A C57G , field self-cleavage: 0

Record C7U C30A , field self-cleavage: 0.369

Record C33U G80C , field self-cleavage: 0.143

Record C22G C24U , field self-cleavage: 0.104

Record C26U G34C , field self-cleavage: 0.224

Record C7U U23C , field self-cleavage: 0.516
